Below is a list of entries, each paired with its recorded cell viability value.
tested on: Calu-3; assay: cell viability relative to DMSO; higher = less toxic; details: 72 h; 1000 nM
Quantity Name: cell viability (%)

[[record]]
compound = "CC(=O)OC[C@H]1O[C@@H]([S-])[C@H](OC(C)=O)[C@@H](OC(C)=O)[C@@H]1OC(C)=O.CCP(CC)CC.[Au+]"
quantity_name = "cell viability"
observed_value = 117

[[record]]
compound = "CCCN(CCC)CCc1ccc(OC)c(OCCc2ccccc2)c1"
quantity_name = "cell viability"
observed_value = 107

[[record]]
compound = "N#C/C(=C\\c1cccn1S(=O)(=O)c1cccc([N+](=O)[O-])c1)S(=O)(=O)c1ccc(F)cc1"
quantity_name = "cell viability"
observed_value = 105

[[record]]
compound = "C[C@@H](O)[C@H]1C(=O)N2C(C(=O)O)=C(S[C@@H]3CN[C@H](C(=O)N(C)C)C3)[C@H](C)[C@H]12"
quantity_name = "cell viability"
observed_value = 104

[[record]]
compound = "CN/C(=N\\S(=O)(=O)c1ccc(Cl)cc1)N1C[C@H](c2ccccc2)C(c2ccc(Cl)cc2)=N1 (racemic) [SLV-319-(+/-)]"
quantity_name = "cell viability"
observed_value = 118

[[record]]
compound = "CNC(=O)c1cnn(-c2nc(N)c3ncn([C@@H]4O[C@H](CO)[C@@H](O)[C@H]4O)c3n2)c1"
quantity_name = "cell viability"
observed_value = 102

[[record]]
compound = "CN(C)[C@@H]1C(O)=C(C(N)=O)C(=O)[C@@]2(O)C(O)=C3C(=O)c4c(O)cccc4[C@@](C)(O)[C@H]3C[C@@H]12"
quantity_name = "cell viability"
observed_value = 107


---

This listing pairs molecules with measured drug-induced phospholipidosis.
tested on: A549-ACE2; test: drug-induced phospholipidosis relative to tamoxifen; higher = more phospholipidosis; details: 0.3 µM; 48 h
Quantity Name: drug-induced phospholipidosis (%)

[[record]]
molecule = "CCN(CC)C(=S)S [ditiocarb-sodium-trihydrate]"
target_or_test_system = "A549-ACE2"
observed_value = 2.4

[[record]]
molecule = "CNC(=O)c1cc(Oc2ccc(NC(=O)Nc3cc(C(C)(C)C)nn3-c3ccc4ncccc4c3)c(F)c2)ccn1"
target_or_test_system = "A549-ACE2"
observed_value = -0.69

[[record]]
molecule = "Clc1cc(Cl)c(OCC#CI)cc1Cl"
target_or_test_system = "A549-ACE2"
observed_value = -1.51

[[record]]
molecule = "COc1ccc(-c2cc3nccn3c(Nc3ncccc3C(N)=O)n2)cc1OC"
target_or_test_system = "A549-ACE2"
observed_value = 0.47

[[record]]
molecule = "Cc1ccc(NC(=O)c2ccc(CN3CCN(C)CC3)cc2)cc1Nc1nc(-c2cccnc2)cs1"
target_or_test_system = "A549-ACE2"
observed_value = 0.9


---

system: Caco-2; experiment: cell viability relative to DMSO; higher = less toxic; conditions: 72 h; 1000 nM
Recorded cell viability values for a group of compounds are listed next.
Quantity Name: cell viability (%)

[[record]]
compound = "COC1=C(OC)C(=O)C(CCCCCCCCCCO)=C(C)C1=O"
target_or_test_system = "Caco-2"
measure_unit = "%"
observed_value = 98.4

[[record]]
compound = "CN/C(=N\\S(=O)(=O)c1ccc(Cl)cc1)N1C[C@H](c2ccccc2)C(c2ccc(Cl)cc2)=N1 (racemic) [SLV-319-(+/-)]"
target_or_test_system = "Caco-2"
measure_unit = "%"
observed_value = 103

[[record]]
compound = "CCn1cnc(C(=O)NC)c1C(=O)NC"
target_or_test_system = "Caco-2"
measure_unit = "%"
observed_value = 99.1

[[record]]
compound = "CC(C)(c1ccc(O)cc1)c1ccc(O)cc1"
target_or_test_system = "Caco-2"
measure_unit = "%"
observed_value = 97.3

[[record]]
compound = "COc1ccc2cc([C@H](C)C(=O)O)ccc2c1"
target_or_test_system = "Caco-2"
measure_unit = "%"
observed_value = 94.9

[[record]]
compound = "CC1(C)CCC(C)(C)c2c1cc(C(=O)Nc1cc(F)c(C(=O)O)c(F)c1)c(O)c2Cl"
target_or_test_system = "Caco-2"
measure_unit = "%"
observed_value = 86.9

[[record]]
compound = "NC[C@@H](O)CC(=O)O [aminohydroxybutyric-acid]"
target_or_test_system = "Caco-2"
measure_unit = "%"
observed_value = 103

[[record]]
compound = "c1ccc2cc(C3=NCCN3)ncc2c1"
target_or_test_system = "Caco-2"
measure_unit = "%"
observed_value = 97.7

[[record]]
compound = "CNc1ccc([N+](=O)[O-])cc1-n1cnc(-c2ccc(C(F)(F)F)cc2)c1"
target_or_test_system = "Caco-2"
measure_unit = "%"
observed_value = 101

